Just for reference, patent US20230286983A1 is where these values come from.

Give measured T1/2 for each item. Keep answers brief.
- method.description: Liver microsome stability, mouse
- Assay type: in vitro ADME
- assay.conditions: mouse liver microsomes, Table 11b
Give the number; h is assumed, so skip it.

// returns reported T1/2 for input Cc1cc(Nc2cc(NC(=O)C3CC3)ncn2)c(=O)n2c1C(=O)NC21C[C@H]2CNC[C@H]2C1 (single isomer, unassigned) [Compound 4ET-03-050B]
7.07

// returns reported T1/2 for input Cc1cc(Nc2cc(NC(=O)C3CC3)ncn2)c(=O)n2c1C(=O)NC21C[C@H]2CNC[C@H]2C1 (single isomer, unassigned) [Compound 4ET-03-050A]
1.2

// returns reported T1/2 for input Cc1cc(Nc2cc(NC(=O)C3CC3)ncn2)c(=O)n2c1C(=O)NC21Cc2ccccc2[C@@H]1F (single isomer, unassigned) [Compound 4ET-03-052B]
2.88

// returns reported T1/2 for input Cc1cc(Nc2cc(N)ncn2)c(=O)n2c1C(=O)NC21C[C@H]2COC[C@H]2C1 (single isomer, unassigned) [Compound 4ET-01-014B]
7.17

---

- method.description: Pharmacokinetic study, 4ET-03-009 at 10 mg/kg oral
- Type: in vivo, CD-1 male mice
- assay.conditions: male, CD-1, mouse, plasma, oral, 10 mg/kg, 0.5 hours, mean n = 3, read-out: Plasma Conc. Mean
readout: concentration at 0.5 hours

// returns reported concentration at 0.5 hours for input Cc1cc(Nc2cc(NC(=O)C3CC3)ncn2)c(=O)n2c1C(=O)NC21CCOCC1
226 ng/mL

---

- method.description: Pharmacokinetic study, 4ET-01-021 with IV and PO dosing
- Type: in vivo, CD-1 male mice
- assay.conditions: male, CD-1, mouse, plasma; IV 1.0 mg/kg, mean of 3 animals
readout: half-life (h)
Give the number; h is assumed, so skip it.

// returns reported half-life for input CCC1=CC2(CCC1)NC(=O)c1c(C)cc(Nc3cc(N)ncn3)c(=O)n12 (stereo not shown)
8.42

---

- method.description: Pharmacokinetic study, 4ET-03-009 at 10 mg/kg oral
- Type: in vivo, CD-1 male mice
- assay.conditions: male, CD-1, mouse, plasma, po, 10 mg/kg, Mean (n = 3), read-out: AUC0-8 hours
readout: AUC(0-t) (ng·h/mL)
Give the number; ng·h/mL is assumed, so skip it.

// returns reported AUC(0-t) for input Cc1cc(Nc2cc(NC(=O)C3CC3)ncn2)c(=O)n2c1C(=O)NC21CCOCC1 [Compound 4ET-03-009]
1180

---

- method.description: Pharmacokinetic study, 4ET-03-009 at 10 mg/kg oral
- Format: in vivo, CD-1 male mice
- assay.conditions: male, CD-1, mouse, plasma, oral, 10 mg/kg, Mean (n = 3), read-out: Clast
readout: concentration at 24 hours (ng/mL)
Give the number; ng/mL is assumed, so skip it.

// returns reported concentration at 24 hours for input Cc1cc(Nc2cc(NC(=O)C3CC3)ncn2)c(=O)n2c1C(=O)NC21CCOCC1 [Compound 4ET-03-009]
1.92

---

- method.description: Pharmacokinetic study, 4ET-03-009 at 20 mg/kg oral
- Assay type: in vivo, CD-1 male mice
- assay.conditions: male, CD-1, mouse, plasma, po, 20 mg/kg, Mean (n = 3)
readout: half-life (h)
Give the number; h is assumed, so skip it.

// returns reported half-life for input Cc1cc(Nc2cc(NC(=O)C3CC3)ncn2)c(=O)n2c1C(=O)NC21CCOCC1
3.6
